- Tested on: TGF-β-stimulated SMAD3 phosphorylation in BEAS-2B cells
- assay-info: Cellular ALK5 potency assay, inhibition of TGF-β stimulated pSMAD3 formation in BEAS-2B cells
- Type: cell-based
- condition-summary: Homo sapiens, inhibition of TGF-β (10 ng/mL) stimulated pSMAD3 formation, 1 hour compound incubation, read-out: BEAS2B pIC50 (converted)
endpoint-name: IC50

Any idea what its IC50 is? The molecule is `Fc1ccc(Cl)cc1-c1[nH]cnc1-c1ccc2ncc(-c3nc4n(n3)CCNC4)cc2n1`
25.1 to 158 nM

Now the same for `OCCN1CCN(c2cnc3ccc(-c4c[nH]nc4-c4cc(Cl)ccc4F)nc3c2)CC1`
25.1 to 158 nM

How about `Fc1ccc(Cl)cc1-c1n[nH]cc1-c1ccc2ncc(NC[C@@H]3CCCN3)cc2n1` ?
≤ 20 nM

Now consider `CNCCn1ccc(-c2cnc3ccc(-c4c[nH]nc4-c4cc(Cl)c(F)cc4F)nc3c2)n1` and answer again.
≤ 20 nM

Same for `Fc1ccc(Cl)cc1-c1n[nH]cc1-c1ccc2ncc(-c3nc4n(n3)CCNC4)cc2n1`
25.1 to 158 nM

Entry `CN1CCN(C2CCN(c3cnc4ccc(-c5nc[nH]c5-c5cc(Cl)ccc5F)nc4c3)CC2)CC1` please
25.1 to 158 nM

Another: `Fc1ccc(Cl)cc1-c1[nH]nnc1-c1ccc2ncc(N3CCNCC3)cc2c1`
25.1 to 158 nM

Same lookup for Fc1ccc(Cl)cc1-c1n[nH]cc1-c1ccc2ncc(NCC3CCNC3)cc2n1 (stereo not shown) , please.
25.1 to 158 nM

Consider next the molecule `Fc1ccc(Cl)cc1-c1nnn(Cc2ccccc2)c1-c1ccc2ncccc2n1` in the same way.
200 to 1260 nM

Would you kindly repeat that for `Fc1cc(F)c(-c2[nH]cnc2-c2ccc3ncc(NCCN4CCNCC4)cc3n2)cc1Cl` ?
25.1 to 158 nM

Here is the next molecule: `Fc1ccc(Cl)cc1-c1n[nH]cc1-c1ccc2ncc(NCC3CNC3)cc2n1`
25.1 to 158 nM

Entry `CNC1CN(c2cnc3ccc(-c4c[nH]nc4-c4cc(Cl)ccc4F)nc3c2)C1` please
≤ 20 nM

Also `NC(=O)C1(N2CCN(c3cnc4ccc(-c5c[nH]nc5-c5cc(Cl)ccc5F)nc4c3)CC2)CCCC1` ?
25.1 to 158 nM

Ok, now `CNCCn1cc(-c2cnc3ccc(-c4nc[nH]c4-c4cc(Cl)ccc4F)cc3c2)cn1`
25.1 to 158 nM

Thanks! And `Fc1ccc(Cl)cc1-c1[nH]cnc1-c1ccc2ncc(Nc3ccc(N4CCNCC4)cn3)cc2n1` ?
25.1 to 158 nM

Try the molecule `CC(C)N1CCN(c2ccc(Nc3cnc4ccc(-c5nc[nH]c5-c5cc(Cl)ccc5F)nc4c3)nc2)CC1`
25.1 to 158 nM

* * *

- Tested on: TGF-β-stimulated SMAD3 phosphorylation in BEAS-2B cells
- assay-info: Cellular ALK5 potency assay, inhibition of TGF-β stimulated pSMAD3 formation in BEAS-2B cells
- Type: cell-based
- condition-summary: Homo sapiens, inhibition of TGF-β (10 ng/mL) stimulated pSMAD3 formation, 1 hour compound incubation, read-out: BEAS2B pIC50 (converted)
endpoint-name: IC50

Could you share which IC50 value was measured for `Fc1cc(F)c(-c2n[nH]cc2-c2ccc3ncc(-c4cn[nH]c4)cc3n2)cc1Cl` ?
≤ 20 nM

Would you mind doing `Fc1ccc(Cl)cc1-c1[nH]cnc1-c1ccc2ncc(-c3cnc4n3CCNC4)cc2n1` as well?
25.1 to 158 nM

Lookup `Fc1ccc(Cl)cc1-c1n[nH]cc1-c1ccc2ncc(-c3cnn4c3CNCC4)cc2n1`
≤ 20 nM

Next up: `Fc1ccc(Cl)cc1-c1n[nH]cc1-c1ccc2ncc(C3=CCNC3)cc2n1`
≤ 20 nM

And then `Fc1cc(F)c(-c2n[nH]cc2-c2ccc3ncc(-c4nnn5c4CNCC5)cc3n2)cc1Cl` , what is it?
25.1 to 158 nM

Next up: `CN1CC=C(c2nc3n(n2)CCN(c2cnc4ccc(-c5c[nH]nc5-c5cc(Cl)ccc5F)nc4c2)C3)C1`
25.1 to 158 nM

Moving on to the next molecule: `CC(C)N1CCN(CCNc2cnc3ccc(-c4nc[nH]c4-c4cccc(Cl)c4)nc3c2)CC1`
≤ 20 nM

Here is the next molecule: `CC(C)N1CCN(C(C)(C)CNc2cnc3ccc(-c4c[nH]nc4-c4cc(Cl)ccc4F)nc3c2)CC1`
25.1 to 158 nM

Note, next up: `Fc1ccc(Cl)cc1-c1[nH]cnc1-c1ccc2ncc(-c3cc4n(n3)CCNC4)cc2n1`
25.1 to 158 nM

Also, `NCCn1cc(-c2cnc3ccc(-c4nc[nH]c4-c4cc(Cl)c(F)cc4F)nc3c2)cn1` please.
25.1 to 158 nM

Same read-out for `CC(C)N1CCN(CCNc2cnc3ccc(-c4nc[nH]c4-c4cc(Cl)ccc4F)nc3c2)CC1` ?
25.1 to 158 nM

Moving on to the next molecule: `Fc1cc(F)c(-c2n[nH]cc2-c2ccc3ncc(-c4cnn5c4CNCC5)cc3n2)cc1Cl`
25.1 to 158 nM

Let us now turn to `Fc1ccc(Cl)cc1-c1[nH]cnc1-c1ccc2ncc(-c3cnn4c3CNCC4)cc2n1`
25.1 to 158 nM

And CC(CO)N1CCN(CCNc2cnc3ccc(-c4c[nH]nc4-c4cc(Cl)c(F)cc4F)nc3c2)CC1 (stereo not shown) ?
25.1 to 158 nM

Lookup CC1CN(c2cnc3ccc(-c4c[nH]nc4-c4cc(Cl)ccc4F)nc3c2)CC(C)N1CCN (stereo not shown)
25.1 to 158 nM

Consider next the molecule `CN1CC=C(c2nc3n(n2)CCN(c2cnc4ccc(-c5nc[nH]c5-c5cc(Cl)ccc5F)nc4c2)C3)C1` in the same way.
25.1 to 158 nM

* * *

- measured-target: recombinant human ALK5 (TGF-βR1) protein (Homo sapiens)
- Sequence (P36897 34-503): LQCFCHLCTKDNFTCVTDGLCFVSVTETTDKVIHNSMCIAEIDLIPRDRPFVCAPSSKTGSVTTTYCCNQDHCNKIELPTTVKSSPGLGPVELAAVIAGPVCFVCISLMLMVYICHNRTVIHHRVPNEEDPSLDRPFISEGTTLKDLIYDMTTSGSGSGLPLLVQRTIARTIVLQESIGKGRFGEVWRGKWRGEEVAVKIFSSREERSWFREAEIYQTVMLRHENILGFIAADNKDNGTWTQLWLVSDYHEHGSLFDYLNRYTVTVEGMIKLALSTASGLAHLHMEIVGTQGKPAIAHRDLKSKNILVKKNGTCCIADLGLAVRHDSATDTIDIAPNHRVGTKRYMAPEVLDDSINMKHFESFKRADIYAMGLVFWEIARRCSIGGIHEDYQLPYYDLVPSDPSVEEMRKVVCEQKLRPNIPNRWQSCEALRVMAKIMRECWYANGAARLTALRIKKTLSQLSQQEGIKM
- assay-info: Biochemical ALK5 (TGF-βR1) assay to measure pKi (LANCE Ultra ULight kinase assay)
- condition-summary: apparent pKi, converted from pIC50 using the Cheng-Prusoff equation
pKi: −log10 of the molar value.
So I've got a bunch of compounds here, and I need their pKi values.

# get_value(readout='pKi', item= CC(C)N1CCN(CCNc2cnc3ccc(-c4c[nH]nc4-c4ccc(F)c(F)c4)nc3c2)CC1 [Compound 8-1] )
7.50 to 8.40

// repeat for Fc1ccc(Cl)cc1-c1n[nH]cc1-c1ccc2ncc(-c3ncn4c3CNCC4)cc2n1 [Compound 1-113] and report
9.50 to 10.40

Next up: Fc1ccc(Cl)cc1-c1nc2ccccn2c1-c1ccc2ncc(-c3nc4n(n3)CCNC4)cc2n1 [Compound 3-9]
9.50 to 10.40

Another compound: Fc1ccc(Cl)cc1-c1n[nH]cc1-c1ccc2ncc(NC3CCCNC3)cc2n1 (centres unmarked) [Compound 1-25]
8.50 to 9.40

Now the compound Fc1ccc(Cl)cc1-c1n[nH]cc1-c1ccc2ncc(NCC3CN4CCN3CC4)cc2n1 (centres unmarked) [Compound 1-10]
9.50 to 10.40

Similarly, Fc1ccc(Cl)cc1-c1[nH]cnc1-c1ccc2ncc(-c3cnn4c3CNCC4)cc2n1 [Compound 2-22] ?
9.50 to 10.40

Try this compound next: Fc1cc(F)c(-c2n[nH]cc2-c2ccc3ncc(-c4nnn5c4CNCC5)cc3n2)cc1Cl [Compound 6-57]
8.50 to 9.40

What do you have for O=C(O)C1CN(CCNc2cnc3ccc(-c4c[nH]nc4-c4cc(Cl)ccc4F)nc3c2)CCN1 (centres unmarked) [Compound 1-133] ?
9.50 to 10.40

* * *

- System: TGF-β-stimulated SMAD3 phosphorylation in BEAS-2B cells
- assay-info: Cellular ALK5 potency assay, inhibition of TGF-β stimulated pSMAD3 formation in BEAS-2B cells
- Type: cell-based
- condition-summary: Homo sapiens, inhibition of TGF-β (10 ng/mL) stimulated pSMAD3 formation, 1 hour compound incubation, read-out: BEAS2B pIC50 (converted)
endpoint-name: IC50

Which IC50 is reported with TGF-β-stimulated SMAD3 phosphorylation in BEAS-2B cells for this entry: CC(C)N1CCN(CCNc2cnc3ccc(-c4c[nH]nc4-c4ccc(F)cc4F)nc3c2)CC1 [Compound 10-2] ?
25.1 to 158 nM

Field entry: CN(C)CCN1CCN(c2cnc3ccc(-c4c[nH]nc4-c4cc(Cl)ccc4F)nc3c2)CC1 [Compound 1-71]
≤ 20 nM

Can you check Fc1ccc(Cl)cc1-c1n[nH]cc1-c1ccc2ncc(-c3ncc4n3CCNC4)cc2n1 [Compound 1-114] next?
25.1 to 158 nM

Please answer likewise for Fc1ccc(-c2n[nH]cc2-c2ccc3ncc(N4CCNCC4)cc3n2)cc1F [Compound 8-4]
25.1 to 158 nM

Note, next up: Fc1ccc(Cl)cc1-c1n[nH]cc1-c1ccc2ncc(N3CCCNCC3)cc2n1 [Compound 1-63]
25.1 to 158 nM

// same read-out, input: CNCCn1cc(-c2cnc3ccc(-c4nc[nH]c4-c4cccc(COC)c4)nc3c2)cn1 [Compound 15-3]
25.1 to 158 nM

Please do the same for CN(C)C(=O)[C@H]1CN(c2cnc3ccc(-c4c[nH]nc4-c4cc(Cl)ccc4F)nc3c2)CCN1 [Compound 1-61] as well.
25.1 to 158 nM

Also need CNCCn1cc(-c2cnc3ccc(-c4c(-c5cc(Cl)ccc5F)nnn4Cc4cccnc4)cc3c2)cn1 [Compound 20-1] , thanks.
25.1 to 158 nM

Then this compound: O=C(O)[C@H]1CN(c2cnc3ccc(-c4c[nH]nc4-c4cc(Cl)c(F)cc4F)nc3c2)CCN1 [Compound 6-68]
200 to 1260 nM

Try this compound next: CCOC(=O)Cn1cc(-c2cnc3ccc(-c4c[nH]nc4-c4cc(Cl)ccc4F)nc3c2)nn1 [Compound 1-103]
25.1 to 158 nM

Again, but for Fc1ccc(Cl)cc1-c1n[nH]cc1-c1ccc2ncc(-c3nnn4c3NCCC4)cc2n1 [Compound 1-118]
≤ 20 nM

Now the compound CN(C)C1CCN(c2cnc3ccc(-c4nc[nH]c4-c4cc(Cl)ccc4F)nc3c2)CC1 [Compound 2-6]
25.1 to 158 nM

Now the compound COC(=O)CC1CN(c2cnc3ccc(-c4nc[nH]c4-c4cccc(Cl)c4)nc3c2)CCN1 (stereo not shown) [Compound 29-3]
25.1 to 158 nM

Further, for O=C(OCc1ccccc1)N1CCC2(CCN(c3cnc4ccc(-c5c[nH]nc5-c5cc(Cl)ccc5F)nc4c3)C2)C1 (stereo not shown) [Compound 1-35] ?
200 to 1260 nM

And the next one, Fc1cc(F)c(-c2n[nH]cc2-c2ccc3ncc(NCCN4CCNCC4)cc3n2)cc1Cl [Compound 6-9] ?
25.1 to 158 nM

What about this compound? Fc1cc(F)c(-c2n[nH]cc2-c2ccc3ncc(-c4nnc5n4CCN5)cc3n2)cc1Cl [Compound 6-64]
200 to 1260 nM

Next: O=C(O)C1CN(CCNc2cnc3ccc(-c4c[nH]nc4-c4cc(Cl)ccc4F)nc3c2)CCN1 (stereo not shown) [Compound 1-133]
200 to 1260 nM

Now the compound CN(C)C1CCN(c2cnc3ccc(-c4c[nH]nc4-c4cc(Cl)ccc4F)nc3c2)C1 (racemic) [Compound 1-34]
25.1 to 158 nM

Can you check COC(=O)N1CCc2nnc(-c3cnc4ccc(-c5c[nH]nc5-c5cc(Cl)ccc5F)nc4c3)cc2C1 [Compound 1-126] next?
25.1 to 158 nM

And what about the compound CNCCn1ccc(-c2cnc3ccc(-c4nc[nH]c4-c4cc(Cl)ccc4F)nc3c2)n1 [Compound 2-16] ?
25.1 to 158 nM

Next: CNCCn1cc(-c2cnc3ccc(-c4c(-c5cc(Cl)ccc5F)[nH]c5cccnc45)nc3c2)cn1 [Compound 25-2]
200 to 1260 nM

Proceed to NC(=O)c1coc(-c2cnc3ccc(-c4c[nH]nc4-c4cc(Cl)ccc4F)nc3c2)n1 [Compound 1-105]
25.1 to 158 nM

Now give it for CC(C)N1CC2CN(c3cnc4ccc(-c5c[nH]nc5-c5cc(Cl)ccc5F)nc4c3)CC21 (stereo not shown) [Compound 1-70] too.
25.1 to 158 nM

And then CN(CC1CNC1)c1cnc2ccc(-c3c[nH]nc3-c3cc(Cl)c(F)cc3F)nc2c1 [Compound 6-32] , what is it?
25.1 to 158 nM

Now consider Fc1cc(F)c(-c2n[nH]cc2-c2ccc3ncc(-c4nnn5c4NCCC5)cc3n2)cc1Cl [Compound 6-47] and answer again.
25.1 to 158 nM

How about this compound: N[C@@H]1CCCC[C@H]1n1cc(-c2cnc3ccc(-c4nc[nH]c4-c4cc(Cl)c(F)cc4F)cc3c2)cn1 [Compound 7-7]
25.1 to 158 nM

Next record, please: Fc1cc(F)c(-c2n[nH]cc2-c2ccc3ncc(-c4cnc5n4CCCN5)cc3n2)cc1Cl [Compound 6-60]
25.1 to 158 nM

Quick one: O=C(O)CC1CN(c2cnc3ccc(-c4nc[nH]c4-c4cccc(Cl)c4)nc3c2)CCN1 (stereo not shown) [Compound 29-4]
1580 to 10000 nM

Proceed to Fc1ccc(Cl)cc1-c1nc2ccccn2c1-c1ccc2ncc(-c3nnn4c3CNCC4)cc2n1 [Compound 3-6]
25.1 to 158 nM

Do the same for COCc1cccc(-c2n[nH]cc2-c2ccc3ncc(N4CCNCC4)cc3n2)c1 [Compound 14-16] please
200 to 1260 nM

Would you kindly repeat that for COCc1cccc(-c2[nH]cnc2-c2ccc3ncc(NCCN4CCN(C(C)C)CC4)cc3n2)c1 [Compound 15-2] ?
200 to 1260 nM
